- tested target: T1, huNav1.7α + β1-β2-β3 (human Nav1.7α co-expressed with human Navβ1, Navβ2 and Navβ3 on cells) (human)
- T1 construct: also called huNav1.7-beta1-beta2-beta3; CHO FlpIn huNav1.7α + β1-β2-β3
- method summary: binding FACS, CHO FlpIn cells
quantity: EC50 (nM)
Write it as a number; the unit nM goes unstated.

• F010302372 (VHH, also called F0103387G04(L11V, A12V, K33R, R39Q, S50Y, S56D, T60A, G73R, W78V, S79Y, T83R, V89L, N93R, S100V, N100cI)) VHH: EVQLVESGGGVVQPGGSLRLSCAASGPVFNINRMAWYRQAPGKQRELVAYVTPTGDISYADSVKGRFTISRDRSKRVYLQMNSLRPEDTALYYCRALLQPDVYSITRTYWGQGTLVTVSS = 17

Incoming: // EC50 lookup, key: F010302315 (VHH, also called F0103387G04(L11V, A12V, K33R, R39Q, S50Y, S56D, T60A, W78V, S79Y, T83R, V89L, N93R, D99R, N100cI)) VHH: EVQLVESGGGVVQPGGSLRLSCAASGPVFNINRMAWYRQAPGKQRELVAYVTPTGDISYADSVKGRFTISRDGSKRVYLQMNSLRPEDTALYYCRALLQPRSYSITRTYWGQGTLVTVSS
Outgoing: 7.2

Incoming: May I ask what EC50 has been recorded for F010302314 (VHH, also called F0103387G04(L11V, A12V, K33R, R39Q, S50Y, S56D, T60A, G73R, W78V, S79Y, T83R, V89L, N93R, N100cI)) VHH: EVQLVESGGGVVQPGGSLRLSCAASGPVFNINRMAWYRQAPGKQRELVAYVTPTGDISYADSVKGRFTISRDRSKRVYLQMNSLRPEDTALYYCRALLQPDSYSITRTYWGQGTLVTVSS ?
Outgoing: 16

Incoming: Any idea what EC50 was measured for F010301845 (VHH, also called F0103387G04(L11V, A12V, K33R, R39Q, S50Y, S56D, W78V, T83R, V89L, N93R)) VHH: EVQLVESGGGVVQPGGSLRLSCAASGPVFNINRMAWYRQAPGKQRELVAYVTPTGDISYTDSVKGRFTISRDGSKRVSLQMNSLRPEDTALYYCRALLQPDSYSNTRTYWGQGTLVTVSS ?
Outgoing: 17
